Biological target: pEGFR in Ba/F3 cells expressing EGFR exon 20 NPG Ins D770_N771 (Homo sapiens, UniProt P00533, INS770NPG)
Sequence (P00533 with tags, fused parts or gaps INS770NPG): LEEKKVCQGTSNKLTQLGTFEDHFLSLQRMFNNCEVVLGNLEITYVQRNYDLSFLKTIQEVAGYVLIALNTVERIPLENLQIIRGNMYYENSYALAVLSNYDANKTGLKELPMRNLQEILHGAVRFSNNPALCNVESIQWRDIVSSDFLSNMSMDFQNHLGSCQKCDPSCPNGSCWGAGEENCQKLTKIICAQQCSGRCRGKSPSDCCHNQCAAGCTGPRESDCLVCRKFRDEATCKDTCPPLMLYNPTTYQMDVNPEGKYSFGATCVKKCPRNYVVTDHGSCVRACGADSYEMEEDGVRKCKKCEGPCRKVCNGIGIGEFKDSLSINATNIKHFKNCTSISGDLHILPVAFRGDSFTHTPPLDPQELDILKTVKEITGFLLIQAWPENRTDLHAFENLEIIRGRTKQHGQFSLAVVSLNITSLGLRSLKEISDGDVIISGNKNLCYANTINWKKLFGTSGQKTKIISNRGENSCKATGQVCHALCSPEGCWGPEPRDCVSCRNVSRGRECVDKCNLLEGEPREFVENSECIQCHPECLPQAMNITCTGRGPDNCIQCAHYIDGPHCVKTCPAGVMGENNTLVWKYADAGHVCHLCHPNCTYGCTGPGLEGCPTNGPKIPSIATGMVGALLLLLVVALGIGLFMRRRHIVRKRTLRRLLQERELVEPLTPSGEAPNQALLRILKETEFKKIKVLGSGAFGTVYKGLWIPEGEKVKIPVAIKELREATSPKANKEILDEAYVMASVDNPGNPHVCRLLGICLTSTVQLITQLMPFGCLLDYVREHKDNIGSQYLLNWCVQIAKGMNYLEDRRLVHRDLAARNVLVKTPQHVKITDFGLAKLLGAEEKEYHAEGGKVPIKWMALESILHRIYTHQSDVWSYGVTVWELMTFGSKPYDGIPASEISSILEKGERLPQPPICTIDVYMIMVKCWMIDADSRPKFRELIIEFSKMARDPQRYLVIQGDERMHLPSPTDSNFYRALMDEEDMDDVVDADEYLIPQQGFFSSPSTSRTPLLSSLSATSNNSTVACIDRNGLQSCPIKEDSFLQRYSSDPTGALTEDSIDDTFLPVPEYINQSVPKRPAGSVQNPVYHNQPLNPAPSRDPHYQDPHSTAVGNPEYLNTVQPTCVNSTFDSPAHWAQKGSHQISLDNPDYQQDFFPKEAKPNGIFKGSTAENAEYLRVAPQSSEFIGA
Assay: Inhibitor activity on EGFR phosphorylation (pEGFR AlphaLISA, 2 h), Ba/F3 EGFR exon 20 NPG insertion
Conditions: Ba/F3 EGFR exon 20 NPG Ins D770_N771
Recorded IC50, one value per entry.

Study these solved cases before continuing.
[[record]]
compound = "COc1c(F)cccc1Nc1c(-c2ccncc2OCn2nnc3ccccc32)[nH]c2c1C(=O)NCC2"
reportedmeasurement = "100 to 1000 nM"

[[record]]
compound = "C=CC(=O)N1CC[C@@H]1COc1cnccc1-c1[nH]c2c(c1Nc1cccc(Cl)c1OC)C(=O)NCC2 [Compound 145a]"
reportedmeasurement = "< 100 nM"

[[record]]
compound = "COc1c(F)cccc1Nc1c(-c2ccncc2OCC2CCn3ccnc32)[nH]c2c1C(=O)NCC2 (centres unmarked)"
reportedmeasurement = "< 100 nM"

[[record]]
compound = "COc1c(Cl)cccc1Nc1c(-c2ccncc2C#CC(C)(C)OC)[nH]c2c1C(=O)NCC2"
reportedmeasurement = "< 100 nM"

[[record]]
compound = "C=CC(=O)N1CC[C@H]1COc1cnccc1-c1[nH]c2c(c1Nc1cccc(Cl)c1OC)C(=O)NCC2 [145b]"
reportedmeasurement = "< 100 nM"


Okay, next one:
Fill in the blank: the reported IC50 of COc1c(Cl)cccc1Nc1c(-c2ccncc2OC[C@@H]2CCN2S(C)(=O)=O)[nH]c2c1C(=O)NCC2 is ____.
< 100 nM

---

Listed next: entries and their corresponding IC50.
Biological target: Ba/F3 cells with EGFR exon 20 ASV Ins V769_D770 (Homo sapiens, UniProt P00533, INS769ASV)
Sequence (P00533 with tags, fused parts or gaps INS769ASV): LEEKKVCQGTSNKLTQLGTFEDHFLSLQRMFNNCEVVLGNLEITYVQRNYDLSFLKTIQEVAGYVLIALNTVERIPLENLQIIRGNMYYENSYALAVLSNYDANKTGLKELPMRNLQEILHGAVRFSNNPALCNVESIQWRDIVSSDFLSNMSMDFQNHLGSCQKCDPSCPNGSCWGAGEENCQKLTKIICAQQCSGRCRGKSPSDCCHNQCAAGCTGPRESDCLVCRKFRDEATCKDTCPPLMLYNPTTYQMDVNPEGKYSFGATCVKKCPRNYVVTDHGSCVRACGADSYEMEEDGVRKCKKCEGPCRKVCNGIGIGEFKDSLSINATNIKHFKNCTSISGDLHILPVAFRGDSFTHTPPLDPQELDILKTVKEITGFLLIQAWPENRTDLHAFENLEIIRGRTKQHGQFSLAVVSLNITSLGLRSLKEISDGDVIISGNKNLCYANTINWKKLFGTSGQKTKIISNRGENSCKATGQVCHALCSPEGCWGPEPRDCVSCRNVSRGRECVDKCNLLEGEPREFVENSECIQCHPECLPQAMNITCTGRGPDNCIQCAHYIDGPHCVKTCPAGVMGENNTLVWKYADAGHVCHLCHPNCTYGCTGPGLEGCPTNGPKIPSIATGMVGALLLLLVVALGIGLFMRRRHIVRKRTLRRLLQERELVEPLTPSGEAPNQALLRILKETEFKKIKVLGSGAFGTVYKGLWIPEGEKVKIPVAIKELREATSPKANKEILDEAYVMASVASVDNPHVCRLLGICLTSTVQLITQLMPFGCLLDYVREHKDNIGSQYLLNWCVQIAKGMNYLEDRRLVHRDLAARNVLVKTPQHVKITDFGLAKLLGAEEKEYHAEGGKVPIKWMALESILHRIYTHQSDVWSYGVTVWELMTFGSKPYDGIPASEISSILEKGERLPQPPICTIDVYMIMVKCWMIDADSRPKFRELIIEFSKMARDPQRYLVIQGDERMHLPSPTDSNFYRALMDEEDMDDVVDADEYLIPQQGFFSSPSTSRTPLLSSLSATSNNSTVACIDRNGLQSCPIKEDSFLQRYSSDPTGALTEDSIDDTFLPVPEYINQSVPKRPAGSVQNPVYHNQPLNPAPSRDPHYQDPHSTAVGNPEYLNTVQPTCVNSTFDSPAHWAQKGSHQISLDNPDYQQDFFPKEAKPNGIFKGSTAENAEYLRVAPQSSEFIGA
Assay: EGFR activity: Ba/F3 cell viability (CellTiter-Glo, 72 h), EGFR exon 20 ASV insertion
Conditions: EGFR exon 20 ASV Ins V769_D770, cell viability, read-out: BaF3 ASV IC50

[[record]]
structure = "CC#CC(=O)N1CC[C@@]1(C)COc1cnccc1-c1[nH]c2c(c1Nc1cccc(Cl)c1OC)C(=O)NCC2"
reportedmeasurement = "100 to 1000 nM"

[[record]]
structure = "COc1c(F)cccc1Nc1c(-c2ccncc2C#C[C@]2(C)COCCN2C(=O)/C=C/CN(C)C)[nH]c2c1C(=O)NCC2"
reportedmeasurement = "< 100 nM"

[[record]]
structure = "COc1ccc(C#Cc2cnccc2-c2[nH]c3c(c2Nc2cccc(F)c2C)C(=O)NCC3)cn1"
reportedmeasurement = "100 to 1000 nM"


What IC50 value was documented for this compound, C=CC(=O)N1CC[C@@H]1[C@H](C)Oc1cnccc1-c1[nH]c2c(c1Nc1cccc(F)c1OC)C(=O)NCC2 ?
100 to 1000 nM

Similarly, COc1c(F)cccc1Nc1c(-c2ccncc2C#C[C@H]2CCN2C(=O)/C=C/CN(C)C)[nH]c2c1C(=O)NCC2 ?
< 100 nM

Next: C=C(F)C(=O)NC(C)(C)C#Cc1cnccc1-c1[nH]c2c(c1Nc1cccc(F)c1OC)C(=O)NCC2
< 100 nM

Entry C=CC(=O)NC1(C#Cc2cnccc2-c2[nH]c3c(c2Nc2cccc(Cl)c2OC)C(=O)NCC3)CCC1 please
< 100 nM

---

# key: entry, value: IC50
Target: Ba/F3 cells with EGFR exon 20 ASV Ins V769_D770 (Homo sapiens, UniProt P00533, INS769ASV)
Assay: EGFR activity: Ba/F3 cell viability (CellTiter-Glo, 72 h), EGFR exon 20 ASV insertion
Conditions: EGFR exon 20 ASV Ins V769_D770, cell viability, read-out: BaF3 ASV IC50

Reference set (3 entries):
[[record]]
molecule = "COc1c(F)cccc1Nc1c(-c2ccncc2C#CC2CCCO2)[nH]c2c1C(=O)NCC2 (single isomer, unassigned) [Compound 148b]"
testedon = "Ba/F3 cells with EGFR exon 20 ASV Ins V769_D770 (Homo sapiens, UniProt P00533, INS769ASV)"
reportedmeasurement = "100 to 1000 nM"

[[record]]
molecule = "C=CC(=O)N1[C@H](C)CC[C@H]1C#Cc1cnccc1-c1[nH]c2c(c1Nc1cccc(Cl)c1OC)C(=O)NCC2"
testedon = "Ba/F3 cells with EGFR exon 20 ASV Ins V769_D770 (Homo sapiens, UniProt P00533, INS769ASV)"
reportedmeasurement = "< 100 nM"

[[record]]
molecule = "COc1c(F)cccc1Nc1c(-c2ccncc2OCc2cccn3ccnc23)[nH]c2c1C(=O)NCC2"
testedon = "Ba/F3 cells with EGFR exon 20 ASV Ins V769_D770 (Homo sapiens, UniProt P00533, INS769ASV)"
reportedmeasurement = "100 to 1000 nM"


Now consider the entry below.
Recorded IC50 of C=CC(=O)N1CCC[C@H]1COc1cnccc1-c1[nH]c2c(c1Nc1cccc(Cl)c1OC)C(=O)NCC2 [Compound 138b] , please.
< 100 nM

---

Biological target: Ba/F3 cells with EGFR exon 20 NPG Ins D770_N771 (Homo sapiens, UniProt P00533, INS770NPG)
Test: EGFR activity: Ba/F3 cell viability (CellTiter-Glo, 72 h), EGFR exon 20 NPG insertion
Conditions: EGFR exon 20 NPG Ins D770_N771, cell viability, read-out: BaF3 NPG IC50
pIC50: −log10 of the molar value.
# Lookup of reported pIC50 keyed by entry

[[record]]
compound = "C=C(CN(C)C)C(=O)NC(C)(C)C#Cc1cnccc1-c1[nH]c2c(c1Nc1cccc(F)c1OC)C(=O)NCC2"
reportedmeasurement = "> 7.00"


Any idea what pIC50 came out for CC#CC(=O)N1CC[C@@H]1C#Cc1cnccc1-c1[nH]c2c(c1Nc1cccc(Cl)c1OC)C(=O)NCC2 on Ba/F3 cells with EGFR exon 20 NPG Ins D770_N771 (Homo sapiens, UniProt P00533, INS770NPG)?
> 7.00

Please answer likewise for C=CC(=O)N1CCC[C@@H]1COc1cnccc1-c1[nH]c2c(c1Nc1cccc(Cl)c1OC)C(=O)NCC2 [Compound 138a]
> 7.00

---

Target: Ba/F3 cells with EGFR exon 20 ASV Ins V769_D770 (Homo sapiens, UniProt P00533, INS769ASV)
Assay: EGFR activity: Ba/F3 cell viability (CellTiter-Glo, 72 h), EGFR exon 20 ASV insertion
Conditions: EGFR exon 20 ASV Ins V769_D770, cell viability, read-out: BaF3 ASV IC50
pIC50: −log10 of the molar value.
Measured pIC50 accompanies every entry in the list below.

// known answers, use as guide
[[record]]
molecule = "C=CC(=O)N1CCC[C@@H]1COc1cnccc1-c1[nH]c2c(c1Nc1cccc(F)c1C)C(=O)NCC2 [Compound 140]"
reportedmeasurement = "> 7.00"

[[record]]
molecule = "C=CC(=O)NC1(C#Cc2cnccc2-c2[nH]c3c(c2Nc2cccc(F)c2OC)C(=O)NCC3)CCC1 [compound 262]"
reportedmeasurement = "> 7.00"

[[record]]
molecule = "CC#CC(=O)N1CCOC[C@H]1COc1cnccc1-c1[nH]c2c(c1Nc1cccc(F)c1OC)C(=O)NCC2 [compound 292]"
reportedmeasurement = "6.00 to 7.00"

[[record]]
molecule = "COc1ccccc1C#Cc1cnccc1-c1[nH]c2c(c1Nc1cccc(Cl)c1OC)C(=O)NCC2 [compound 497]"
reportedmeasurement = "> 7.00"

[[record]]
molecule = "COc1c(F)cccc1Nc1c(-c2ccncc2C#CC(C)(C)NC(=O)/C=C/CN2CC(OC)C2)[nH]c2c1C(=O)NCC2 [compound 393]"
reportedmeasurement = "> 7.00"


What does the record list as pIC50 for C=CC(=O)N[C@]1(C#Cc2cnccc2-c2[nH]c3c(c2Nc2cccc(F)c2C)C(=O)NCC3)CCOC1 [compound 387] ?
> 7.00

What do you have for CCc1c(F)cccc1Nc1c(-c2ccncc2OC[C@]2(C)CCN2C(=O)/C=C/CN(C)C)[nH]c2c1C(=O)NCC2 [compound 427] ?
> 7.00

---

Target: Ba/F3 cells with EGFR WT (Homo sapiens)
Sequence (P00533 25-1210): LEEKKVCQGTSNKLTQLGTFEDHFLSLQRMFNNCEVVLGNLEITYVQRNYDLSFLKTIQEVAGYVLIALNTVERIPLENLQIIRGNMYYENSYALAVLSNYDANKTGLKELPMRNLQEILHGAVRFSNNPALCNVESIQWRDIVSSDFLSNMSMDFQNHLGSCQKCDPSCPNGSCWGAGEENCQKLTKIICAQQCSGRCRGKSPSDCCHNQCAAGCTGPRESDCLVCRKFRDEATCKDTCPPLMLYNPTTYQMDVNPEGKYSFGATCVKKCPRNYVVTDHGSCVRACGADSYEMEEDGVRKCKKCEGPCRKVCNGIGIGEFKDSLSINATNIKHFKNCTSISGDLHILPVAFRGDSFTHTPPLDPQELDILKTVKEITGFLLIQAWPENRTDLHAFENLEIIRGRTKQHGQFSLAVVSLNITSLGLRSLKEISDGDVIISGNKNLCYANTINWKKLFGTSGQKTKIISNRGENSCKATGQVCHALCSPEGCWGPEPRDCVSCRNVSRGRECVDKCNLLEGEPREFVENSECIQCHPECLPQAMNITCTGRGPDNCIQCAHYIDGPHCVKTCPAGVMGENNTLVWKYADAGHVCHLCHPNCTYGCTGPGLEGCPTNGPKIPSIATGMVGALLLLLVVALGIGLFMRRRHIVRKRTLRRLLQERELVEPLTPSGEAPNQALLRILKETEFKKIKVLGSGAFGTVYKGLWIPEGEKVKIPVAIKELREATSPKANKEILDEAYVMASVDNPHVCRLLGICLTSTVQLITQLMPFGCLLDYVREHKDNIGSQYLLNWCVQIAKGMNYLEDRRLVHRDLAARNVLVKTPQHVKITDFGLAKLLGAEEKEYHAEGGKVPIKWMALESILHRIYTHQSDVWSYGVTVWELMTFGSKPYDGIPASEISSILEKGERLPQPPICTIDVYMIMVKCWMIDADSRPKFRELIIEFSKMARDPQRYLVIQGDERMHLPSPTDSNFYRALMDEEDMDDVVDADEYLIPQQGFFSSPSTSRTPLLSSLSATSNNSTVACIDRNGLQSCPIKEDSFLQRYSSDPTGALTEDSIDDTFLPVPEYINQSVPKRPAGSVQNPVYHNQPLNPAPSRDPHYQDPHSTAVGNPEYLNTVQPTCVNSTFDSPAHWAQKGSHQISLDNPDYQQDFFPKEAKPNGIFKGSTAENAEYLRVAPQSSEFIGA
Assay: EGFR activity: Ba/F3 cell viability (CellTiter-Glo, 72 h), EGFR WT
Settings: read-out: BaF3 WT IC50
Below, each entry is listed alongside its reported IC50.

Some entries whose results are on file:
[[record]]
compound = "COc1c(Cl)cccc1Nc1c(-c2ccncc2C#CC23CC(CN2C(=O)/C=C/CN(C)C)C3)[nH]c2c1C(=O)NCC2"
reportedmeasurement = "100 to 1000 nM"

[[record]]
compound = "COc1c(Cl)cccc1Nc1c(-c2ccncc2C#C[C@@]2(C)CCCN2C(=O)/C=C/CN2CC(F)(F)C2)[nH]c2c1C(=O)NCC2"
reportedmeasurement = "> 1000 nM"

[[record]]
compound = "COc1c(F)cccc1Nc1c(-c2ccncc2C#C[C@@]2(C)CCCN2C(=O)/C=C/CN2CCOCC2)[nH]c2c1C(=O)NCC2"
reportedmeasurement = "> 1000 nM"


API: value(readout=IC50, system=Ba/F3 cells with EGFR WT (Homo sapiens)) for record COc1c(F)cccc1Nc1c(-c2ccncc2C#CC23CC(CN2C(=O)/C=C/CN(C)C)C3)[nH]c2c1C(=O)NCC2
100 to 1000 nM

Next record, please: COc1c(Cl)cccc1Nc1c(-c2ccncc2C#CC2CC(F)(F)C2)[nH]c2c1C(=O)NCC2
> 1000 nM

Now consider COc1ccccc1C#Cc1cnccc1-c1[nH]c2c(c1Nc1cccc(F)c1C)C(=O)NCC2 and answer again.
100 to 1000 nM

Numbers sourced from patent US20230364070A1.
